Target: Hypoxanthine-guanine phosphoribosyltransferase (Homo sapiens, UniProt P00492)
Sequence (P00492 whole entry): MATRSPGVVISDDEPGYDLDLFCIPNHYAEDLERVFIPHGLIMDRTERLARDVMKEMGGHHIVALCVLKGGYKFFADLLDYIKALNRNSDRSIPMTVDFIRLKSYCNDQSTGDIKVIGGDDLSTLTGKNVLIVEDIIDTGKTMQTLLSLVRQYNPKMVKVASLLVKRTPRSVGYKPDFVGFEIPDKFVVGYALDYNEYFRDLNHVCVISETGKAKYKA
Experiment: Kinetic inhibition constant of compound with human Hypoxanthine Phosphoribosyltransferase (HPRT)
pKi: −log10 of the molar value.

LINE NOTATION: O=C(Nc1cc2c3ccccc3ccc2c2ccccc12)C(Cl)Cl
pKi: 4.80
